Biological target: CD28 (Homo sapiens, UniProt P10747)
Test: Jurkat/IL2 + CHO/OKT3 +/- PD-L1 reporter assay: PD-L1-dependent CD28 costimulation
Type: cell-based
Parameters: host or cells: Jurkat cells expressing an IL-2-luciferase reporter
Settings: Table E22; Jurkat/IL2 + CHO/OKT3/PD-L1; CD80 Conc 5.0 nM
Provide the reported Relative Luciferase Units (RLU), CD80 Conc 5.0 nM of each item.
Numbers only, in RLU.

Sample answers from the record:
- MOLECULE: "A26E/E35D/V68M/A71G (protein) VIHVTKEVKEVATLSCGHNVSVEELEQTRIYWQKDKKMVLTMMSGDMNIWPEYKNRTIFDITNNLSIMILGLRPSDEGTYECVVLKYEKDAFKREHLAEVTLSVKAD"
  RESULT UNITS: "RLU"
  READOUT VALUE: 839
- MOLECULE: "H18Y/V68M/A71G/D90G (protein) VIHVTKEVKEVATLSCGYNVSVEELAQTRIYWQKEKKMVLTMMSGDMNIWPEYKNRTIFDITNNLSIMILGLRPSDEGTYECVVLKYEKGAFKREHLAEVTLSVKAD"
  RESULT UNITS: "RLU"
  READOUT VALUE: 797
- MOLECULE: "A26E/E35D/V68M/D90G (protein) VIHVTKEVKEVATLSCGHNVSVEELEQTRIYWQKDKKMVLTMMSGDMNIWPEYKNRTIFDITNNLSIMILALRPSDEGTYECVVLKYEKGAFKREHLAEVTLSVKAD"
  RESULT UNITS: "RLU"
  READOUT VALUE: 871
- MOLECULE: "A26E/M47L/A71G/D90G (protein) VIHVTKEVKEVATLSCGHNVSVEELEQTRIYWQKEKKMVLTMMSGDLNIWPEYKNRTIFDITNNLSIVILGLRPSDEGTYECVVLKYEKGAFKREHLAEVTLSVKAD"
  RESULT UNITS: "RLU"
  READOUT VALUE: 827
- MOLECULE: "H18Y/A26E/E35D/M47L (protein) VIHVTKEVKEVATLSCGYNVSVEELEQTRIYWQKDKKMVLTMMSGDLNIWPEYKNRTIFDITNNLSIVILALRPSDEGTYECVVLKYEKDAFKREHLAEVTLSVKAD"
  RESULT UNITS: "RLU"
  READOUT VALUE: 1208
- MOLECULE: "H18Y/M47L/V68M/D90G (protein) VIHVTKEVKEVATLSCGYNVSVEELAQTRIYWQKEKKMVLTMMSGDLNIWPEYKNRTIFDITNNLSIMILALRPSDEGTYECVVLKYEKGAFKREHLAEVTLSVKAD"
  RESULT UNITS: "RLU"
  READOUT VALUE: 834
- MOLECULE: "A26E/E35D/M47L/A71G (protein) VIHVTKEVKEVATLSCGHNVSVEELEQTRIYWQKDKKMVLTMMSGDLNIWPEYKNRTIFDITNNLSIVILGLRPSDEGTYECVVLKYEKDAFKREHLAEVTLSVKAD"
  RESULT UNITS: "RLU"
  READOUT VALUE: 766

Next:
Exam item: Consider the molecule M47L/V68M/A71G/D90G (protein) VIHVTKEVKEVATLSCGHNVSVEELAQTRIYWQKEKKMVLTMMSGDLNIWPEYKNRTIFDITNNLSIMILGLRPSDEGTYECVVLKYEKGAFKREHLAEVTLSVKAD and give its measured Relative Luciferase Units (RLU), CD80 Conc 5.0 nM.
Marked response: 771
